# experiment: Pharmacokinetic test in SD rats, intragastric 50 mg/kg of salts and crystalline forms
# Assay type: in vivo
# particulars: male, SD, rat, plasma, po, 50 mg/kg, 50 mg/kg (in free base)
reported endpoint: half-life (h)
Just the number please, in h, no unit attached.

QUERY: For the compound CC(C)(C)ONc1nc(Nc2ccnc(C(F)(F)F)c2)nc(-c2cccc(C(F)(F)F)n2)n1.CS(=O)(=O)O , give its reported half-life.
RESULT: 10.4
